# Target Desc: MAPKAP-K2 (Homo sapiens, UniProt P49137)
# Sequence (P49137 whole entry): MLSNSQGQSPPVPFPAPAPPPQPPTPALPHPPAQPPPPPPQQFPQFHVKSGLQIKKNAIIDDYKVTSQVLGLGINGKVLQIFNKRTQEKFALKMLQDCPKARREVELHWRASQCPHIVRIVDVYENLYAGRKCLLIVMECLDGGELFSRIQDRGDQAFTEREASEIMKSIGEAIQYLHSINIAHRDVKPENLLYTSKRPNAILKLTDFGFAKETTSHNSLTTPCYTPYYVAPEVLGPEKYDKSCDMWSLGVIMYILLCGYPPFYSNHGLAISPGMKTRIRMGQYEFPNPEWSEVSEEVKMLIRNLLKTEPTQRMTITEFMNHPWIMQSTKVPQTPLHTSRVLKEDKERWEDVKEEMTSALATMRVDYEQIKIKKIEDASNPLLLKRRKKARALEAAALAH
# Experiment Description: MAPKAP-Kinase 2 Assay (33P-ATP peptide phosphorylation, filter plate)
# Assay type: biochemical
# Set-up: key: +: active; ++: more active; +++: very active
# Condition: assays conducted at typically 1-100 μM
Value Type: MAPKAP-K2 activity

Worked cases, MAPKAP-K2 activity given:
1. CN1CCN(Nc2cc(Nc3ccc(F)c(Cl)c3)n3nccc3n2)CC1 | +
2. NC1CCCC(Nc2cc(Nc3ccc(F)c(Cl)c3)n3nccc3n2)C1 (stereo not drawn) | +
3. C=C(C)CNc1cc(NC2CCC(N)CC2)nc2ccnn12 (stereo not drawn) | +++
4. N[C@H]1CC[C@H](Nc2cc(Nc3ccc(Cl)cc3Cl)n3nccc3n2)CC1 | +++
5. COc1cccc(Nc2cc(N[C@H]3CC[C@H](N)CC3)nc3ccnn23)c1 | +++

We now examine a further molecule.
Q: Please indicate MAPKAP-K2 activity recorded for NC1CCC(Nc2cc(Nc3ccc(Br)cc3)n3nccc3n2)CC1 (stereo not drawn)
Result: +++

###

# Target Desc: MAPKAP-K2 (Homo sapiens, UniProt P49137)
# Experiment Description: MAPKAP-Kinase 2 Assay (33P-ATP peptide phosphorylation, filter plate)
# Assay type: biochemical
# Parameters: key: +: active; ++: more active; +++: very active
# Condition: assays conducted at typically 1-100 μM
Value Type: MAPKAP-K2 activity

Reference set, count: 5
1) NC1CCC(Nc2cc(Nc3ccc(F)cc3Cl)n3nccc3n2)CC1 (centres unmarked) | +++
2) CCOc1cccc(Nc2cc(N[C@H]3CC[C@H](N)CC3)nc3ccnn23)c1 | +++
3) CC(Nc1cc(N[C@H]2CC[C@H](N)CC2)nc2ccnn12)c1ccccc1 (some centres unmarked) | +
4) CCCCOc1ccc(Nc2cc(NC3CCC(N)CC3)nc3ccnn23)cc1 (centres unmarked) | +++
5) N[C@H]1CC[C@H](Nc2cc(Nc3ccc(Cl)c(Cl)c3)n3nccc3n2)CC1 | +++

Q: State its MAPKAP-K2 activity: Fc1ccc(Nc2cc(NC3CCC(NCC4CCCCC4)CC3)nc3ccnn23)cc1Cl (centres unmarked)
Result: +

Q: Supply recorded MAPKAP-K2 activity for CC(C)=CCCC(C)=CCNc1cc(NC2CCC(N)CC2)nc2ccnn12 (centres unmarked) here.
Result: +++

Q: Determine from records and report MAPKAP-K2 activity for N[C@H]1CC[C@H](Nc2cc(Nc3ccc(C(F)(F)F)cc3)n3nccc3n2)CC1
Result: +++

###

# Target Desc: MAPKAP-K2 (Homo sapiens)
# Experiment Description: MAPKAP-Kinase 2 Assay (33P-ATP peptide phosphorylation, filter plate)
# Format: biochemical
# Parameters: key: +: active; ++: more active; +++: very active
# Condition: assays conducted at typically 1-100 μM
Value Type: MAPKAP-K2 activity

1) Fc1ccccc1Nc1cc(NC2CCCNC2)nc2ccnn12 (stereo not drawn) [Compound 141] | +++
2) NC1CCC(Nc2cc(Nc3c(F)cccc3F)n3nccc3n2)CC1 (stereo not drawn) [Compound 109] | +++
3) N[C@H]1CC[C@H](Nc2cc(Nc3ccc(O)cc3)n3nccc3n2)CC1 [Compound 70] | +++
4) Fc1ccc(Nc2cc(NC3CCC(NC4CCCCC4)CC3)nc3ccnn23)cc1Cl (stereo not drawn) [Compound 134] | ++
5) CCOc1ccc(Nc2cc(NC3CCCNC3)nc3ccnn23)cc1 (stereo not drawn) [Compound 139] | +++
6) Fc1ccc(Nc2cc(NC3CCC(NCC4CCOC4)CC3)nc3ccnn23)cc1Cl (stereo not drawn) [Compound 127] | ++
7) CCOc1ccc(Nc2cc(NC3CCC(N)CC3)nc3ccnn23)cc1 (stereo not drawn) [Compound 35] | +++
8) COc1ccc(Nc2cc(NC3CCC(N)CC3)nc3ccnn23)c(F)c1 (stereo not drawn) [Compound 112] | +++

Now consider the entry below.
Q: Tell me MAPKAP-K2 activity reported for Fc1ccc(Nc2cc(N3CCNCC3)nc3ccnn23)cc1Cl [Compound 81]
Result: +
